# Measurement description: in vivo
# Test parameters: male, beagle, dog, Absolute oral bioavailability
Measurement label: bioavailability

Looking up O=C(O)c1ccc(-c2ccc(/C=C3\SC(=S)N(Cc4ccccc4)C3=O)o2)cc1 [LA1 (micronized)] , I see its bioavailability listed as 50.6%

---

# Measurement description: in vivo
# Test parameters: male, Sprague-Dawley, rat, % F (absolute IP bioavailability)
Measurement label: bioavailability (%)
Please reply with the bare figure in % and do not write the unit itself.

Looking up O=C(O)c1ccc(-c2ccc(/C=C3\SC(=S)N(Cc4ccccc4)C3=O)o2)cc1 , I see its bioavailability listed as 82

---

# Measurement description: Rat PK of LA1 free acid, first experiment (2-hydroxypropyl-β-cyclodextrin dose solution)
# Type: in vivo, Sprague Dawley (SD) rats
# Test parameters: Sprague Dawley, in vivo, PO 2 mg/kg, 30% 2-hydroxypropyl-β-cyclodextrin in PBS
Measurement label: AUC
Give me the value, and tack the unit on after it.

Looking up O=C(O)c1ccc(-c2ccc(/C=C3\SC(=S)N(Cc4ccccc4)C3=O)o2)cc1 , I see its AUC listed as 8.7 µM·h

---

# Measurement description: in vivo
# Test parameters: male, beagle, dog, iv, 0.5 mg/kg, Plasma concentration
Measurement label: concentration at 0.1 h (ng/mL)
Please reply with the bare figure in ng/mL and do not write the unit itself.

Looking up O=C(O)c1ccc(-c2ccc(/C=C3\SC(=S)N(Cc4ccccc4)C3=O)o2)cc1 , I see its concentration at 0.1 h listed as 897

---

# Measurement description: in vivo
# Test parameters: male, beagle, dog, po, 3 mg/kg, AUC0-12 h
# Experimental: The PO (2 mg/kg) dose solution of micronized LA1 was prepared in 0.1% Tween-80 0.5% (w/v) and methyl cellulose in water. The objective of the study was to investigate the preclinical pharmacokinetic profile of LA1 (micronized powder) in Beagle dog. […]
Measurement label: AUC0-t (ng·h/mL)
Please reply with the bare figure in ng·h/mL and do not write the unit itself.

Looking up O=C(O)c1ccc(-c2ccc(/C=C3\SC(=S)N(Cc4ccccc4)C3=O)o2)cc1 , I see its AUC0-t listed as 2570

---

# Measurement description: in vivo
# Test parameters: male, beagle, dog, po, 3 mg/kg
Structures can show the parent of a compound that is named as a salt.
Measurement label: Tmax (h)
Please reply with the bare figure in h and do not write the unit itself.

Looking up O=C(O)c1ccc(-c2ccc(/C=C3\SC(=S)N(Cc4ccccc4)C3=O)o2)cc1 [LA1 choline salt] , I see its Tmax listed as 4

---

# Measurement description: in vivo
# Test parameters: male, Beagle, dog, po, 5 mg/kg, Plasma concentration
Structures can show the parent of a compound that is named as a salt.
Measurement label: concentration at 5 h (ng/mL)
Please reply with the bare figure in ng/mL and do not write the unit itself.

Looking up O=C(O)c1ccc(-c2ccc(/C=C3\SC(=S)N(Cc4ccccc4)C3=O)o2)cc1 [LA1 choline salt] , I see its concentration at 5 h listed as 442

---

# Measurement description: in vivo
# Test parameters: male, Sprague-Dawley, rat, iv, 1 mg/kg, t1/2,ß
Measurement label: half-life (h)
Please reply with the bare figure in h and do not write the unit itself.

Looking up O=C(O)c1ccc(-c2ccc(/C=C3\SC(=S)N(Cc4ccccc4)C3=O)o2)cc1 , I see its half-life listed as 1.16
